Measurement record for Staphylococcus aureus AP01; quantity recorded: MIC.
Give bare numbers, in µg/mL.

Some molecules with recorded MIC:
>>> resultnumber("CNC[C@@H]1CC[C@@H](N)[C@@H](O[C@H]2C[C@@H](O[C@H]3O[C@H](CO)[C@@H](O)[C@H](N)[C@H]3O)[C@H](NC(=O)[C@@H](O)CCCN)C[C@@H]2N)O1 [AHV-trideoxyMKMB]")
0.39
>>> resultnumber("C[C@H]1O[C@H](O[C@@H]2C[C@H](O[C@H]3O[C@H](CN)CC[C@H]3N)[C@@H](N)C[C@H]2NC(=O)[C@@H](O)CCN)[C@H](O)[C@@H](N)[C@@H]1O [AHB-tetradeoxyKMB]")
0.78

Here is another molecule to look at.
Sample C[C@H]1O[C@H](O[C@@H]2C[C@H](O[C@H]3O[C@H](CN)CC[C@H]3N)[C@@H](N)C[C@H]2N)[C@H](O)[C@@H](N)[C@@H]1O [TetradeoxyKMB, 5,3',4',6"-tetradeoxykanamycin B] — what was its MIC?
6.25

###

For each entry below, report its MIC value.
Tested on: Staphylococcus epidermidis 109
Assay: Minimum inhibitory concentration, serial dilution on nutrient agar
Assay type: cell-based
Details: Staphylococcus epidermidis, 109; nutrient agar, 37° C., 18 hours incubation; read-out: MIC
Give bare numbers, in µg/mL.

Quick one: give me MIC for each item below, same order please.
1. NCC[C@H](O)C(=O)N[C@@H]1C[C@H](N)[C@@H](O[C@H]2O[C@H](CN)CC[C@H]2N)C[C@H]1O[C@H]1O[C@H](CO)[C@@H](O)[C@H](N)[C@H]1O
2. C[C@H]1O[C@H](O[C@@H]2C[C@H](O[C@H]3O[C@H](CN)CC[C@H]3N)[C@@H](N)C[C@H]2NC(=O)[C@@H](O)CCN)[C@H](O)[C@@H](N)[C@@H]1O

1. 0.39
2. 0.78

Quick one: give me MIC for each item below, same order please.
1. NCC[C@H](O)C(=O)N[C@@H]1C[C@H](N)[C@@H](O[C@H]2O[C@H](CN)CC[C@H]2N)[C@H](O)[C@H]1O[C@H]1O[C@H](CO)[C@@H](O)[C@H](N)[C@H]1O [Habekacin, reference compound]
2. NCC(O)C(=O)N[C@@H]1C[C@H](N)[C@@H](O[C@H]2O[C@H](CN)CC[C@H]2N)C[C@H]1O[C@H]1O[C@H](CO)[C@@H](O)[C@H](N)[C@H]1O (some centres unmarked)

[0.78, 0.78]

###

System: Pseudomonas aeruginosa TI-13
Assay: Minimum inhibitory concentration, serial dilution on nutrient agar
Assay type: cell-based
Conditions: TI13, 18 h
For each entry below, report its MIC value.
Give bare numbers, in µg/mL.

Some compounds with recorded MIC:
>>> resultnumber("CNC[C@@H]1CC[C@@H](N)[C@@H](O[C@H]2C[C@@H](O[C@H]3O[C@H](CO)[C@@H](O)[C@H](N)[C@H]3O)[C@H](NC(=O)[C@@H](O)CCCN)C[C@@H]2N)O1")
1.56
>>> resultnumber("CNC[C@@H]1CC[C@@H](N)[C@@H](O[C@H]2C[C@@H](O[C@H]3O[C@H](CO)[C@@H](O)[C@H](N)[C@H]3O)[C@H](NC(=O)[C@@H](O)CCN)C[C@@H]2N)O1")
1.56

Here is another compound to look at.
Sample `NCC[C@H](O)C(=O)N[C@@H]1C[C@H](N)[C@@H](O[C@H]2O[C@H](CN)CC[C@H]2N)C[C@H]1O[C@H]1O[C@H](CO)[C@@H](O)[C@H](N)[C@H]1O` — what was its MIC?
3.13
